// Ki collected for Protein AF-9 (Homo sapiens, UniProt P42568)
Square brackets hold non-standard residues; d marks the D form. Peptide text beside a SMILES is read from it. * marks the point of attachment. Biotinyl(3aR,4S,6aS) = O=C1N[C@H]2[C@H](CCCCC(=O)*)SC[C@H]2N1; X2 = CC(C)n1cc(-c2ccccc2)nc1[C@@H]1CCCN1*; X1 = CCn1cc(-c2ccccc2)nc1[C@@H]1CCCN1*; 1Nal = N[C@@H](Cc1cccc2ccccc12)C(=O)O; 2Nal = N[C@@H](Cc1ccc2ccccc2c1)C(=O)O; Ala(cPent) = N[C@@H](CC1CCCC1)C(=O)O; Gly(cPent) = N[C@H](C(=O)O)C1CCCC1; Cha = N[C@@H](CC1CCCCC1)C(=O)O; Chg = N[C@H](C(=O)O)C1CCCCC1; Dap = NC[C@H](N)C(=O)O; Ahx = NCCCCCC(=O)O
metric: Ki (nM)

INSERT INTO measurements (molecule, metric, output_unit, result) VALUES
  ('CC[C@H](C)[C@H](NC(=O)[C@@H]1CCCN1C(=O)[C@H](CC(C)C)NC(C)=O)C(=O)N[C@@H](CO)C(=O)N[C@H](C(=O)N1CCC[C@H]1C(=O)N[C@@H](CC(C)C)C(=O)N(C)C)C1CCCC1 (Ac-LPIS[Gly(cPent)]PL-NMe2)', 'Ki', 'nM', 250),
  ('CC[C@H](C)[C@H](NC(=O)[C@@H]1CCCN1C(=O)[C@H](CC(C)C)NC(C)=O)C(=O)N[C@@H](CO)C(=O)N[C@@H](CC1CCCC1)C(=O)N1CCC[C@H]1C(=O)N[C@@H](CC(C)C)C(=O)N(C)C (Ac-LPIS[Ala(cPent)]PL-NMe2)', 'Ki', 'nM', 130),
  ('CC[C@H](C)[C@H](NC(=O)[C@@H]1CCCN1C(=O)[C@H](CC(C)C)NC(C)=O)C(=O)N[C@@H](CO)C(=O)N[C@@H](Cc1ccc2ccccc2c1)C(=O)N1CCC[C@H]1C(=O)N[C@@H](CC(C)C)C(=O)N(C)C (Ac-LPIS[2Nal]PL-NMe2)', 'Ki', 'nM', 730),
  ('CC(C)C[C@H](NC(=O)[C@@H]1CCCN1C(=O)[C@H](CC1CCCC1)NC(=O)[C@H](CN)NC(=O)[C@@H](NC(=O)[C@@H]1CCCN1C(=O)[C@H](CC(C)C)NC(=O)CCCCCNC(=O)CCCC[C@@H]1SC[C@H]2NC(=O)N[C@@H]12)C(C)C)C(=O)N(C)C ({Biotinyl(3aR,4S,6aS)-Ahx}-LPV[Dap][Ala(cPent)]PL-NMe2)', 'Ki', 'nM', 10),
  ('CC[C@H](C)[C@H](NC(=O)[C@@H]1CCCN1C(=O)[C@H](CC(C)C)NC(C)=O)C(=O)N[C@@H](CO)C(=O)N[C@@H](Cc1c[nH]c2ccccc12)C(=O)N1CCC[C@H]1C(=O)N[C@@H](CC(C)C)C(=O)N(C)C (Ac-LPISWPL-NMe2)', 'Ki', 'nM', 410),
  ('CC[C@H](C)[C@H](NC(=O)[C@@H]1CCCN1C(=O)[C@H](CC(C)C)NC(C)=O)C(=O)N[C@@H](CO)C(=O)N[C@H](C(=O)N1CCC[C@H]1C(=O)N[C@@H](CC(C)C)C(=O)N(C)C)C1CCCCC1 (Ac-LPIS[Chg]PL-NMe2)', 'Ki', 'nM', 620),
  ('CC[C@H](C)[C@H](NC(=O)[C@@H]1CCCN1C(=O)[C@H](CC(C)C)NC(C)=O)C(=O)N[C@@H](CN)C(=O)N[C@@H](CC1CCCC1)C(=O)N1CCC[C@H]1C(=O)N[C@@H](CC(C)C)C(=O)N(C)C (Ac-LPI[Dap][Ala(cPent)]PL-NMe2)', 'Ki', 'nM', 20),
  ('CC[C@H](C)[C@H](NC(=O)[C@@H]1CCCN1C(=O)[C@H](CC(C)C)NC(C)=O)C(=O)N[C@@H](CO)C(=O)N[C@@H](CC1CCCCC1)C(=O)N1CCC[C@H]1C(=O)N[C@@H](CC(C)C)C(=O)N(C)C (Ac-LPIS[Cha]PL-NMe2)', 'Ki', 'nM', 180),
  ('CC(=O)N[C@@H](CC(C)C)C(=O)N1CCC[C@H]1C(=O)N[C@H](C(=O)N[C@@H](CN)C(=O)N[C@@H](CC1CCCC1)C(=O)N1CCC[C@H]1c1nc(-c2ccccc2)cn1C(C)C)C(C)C (Ac-LPV[Dap][Ala(cPent)]-X2)', 'Ki', 'nM', 57),
  ('CC[C@H](C)[C@H](NC(=O)[C@@H]1CCCN1C(=O)[C@H](CC(C)C)NC(C)=O)C(=O)N[C@@H](CO)C(=O)N[C@@H](Cc1cccc2ccccc12)C(=O)N1CCC[C@H]1C(=O)N[C@@H](CC(C)C)C(=O)N(C)C (Ac-LPIS[1Nal]PL-NMe2)', 'Ki', 'nM', 2600),
  ('CCn1cc(-c2ccccc2)nc1[C@@H]1CCCN1C(=O)[C@H](CC1CCCC1)NC(=O)[C@H](CN)NC(=O)[C@@H](NC(=O)[C@@H]1CCCN1C(=O)[C@H](CC(C)C)NC(C)=O)C(C)C (Ac-LPV[Dap][Ala(cPent)]-X1)', 'Ki', 'nM', 50);
